- target-of-assay: α‐thrombin (αT) (Homo sapiens)
- Construct: goes from Thr1 of the A-chain to Glu295 of the B-chain
- test-method-notes: Tight-binding inhibition of αT amidolytic activity on chromogenic substrate S2238
- Type: biochemical
Bridge positions count the residues as written; N and C are the ends. Ends that are not written are not given here.
metric: pKi
Quick note: pKi means taking -log10 of the concentration in moles per liter.

Task: Give the reported pKi for this sequence. IRFGMGKVPCPDGEVGYTCDCGEKICLYGQSCNDGQCSGDPKPSSEFEEFEIDEEEK (disulfide 10-19, 21-32, 26-37) [haemadin]
Result: 11.82

* * *

- target-of-assay: recombinant wild‐type thrombin (Homo sapiens, UniProt P00734)
- test-method-notes: biochemical
Ends that are not written are not given here.
metric: Kd
Express your answer as a number followed by its unit.

Task: Give the reported Kd for this sequence. SEFEEFEIDEEEK [Haem(45–57)]
Result: 1600 nM

* * *

- target-of-assay: thrombin R93A (exosite II) (Homo sapiens, UniProt P00734, R452A)
- test-method-notes: biochemical
Ends that are not written are not given here.
metric: pKd
Quick note: pKd means taking -log10 of the concentration in moles per liter.

Task: Provide measured pKd on thrombin R93A (exosite II) (Homo sapiens, UniProt P00734, R452A) for SEFEEFEIDEEEK [Haem(45–57)] please.
Result: 5.93

* * *

Quick reference for Ki among some compounds
- target-of-assay: α‐thrombin (αT) (Homo sapiens, UniProt P00734)
- Construct: goes from Thr1 of the A-chain to Glu295 of the B-chain
- test-method-notes: Tight-binding inhibition of αT amidolytic activity on chromogenic substrate S2238
- Assay type: biochemical
Square brackets hold non-standard residues; d marks the D form. Peptide text beside a SMILES is read from it. Dip = N[C@H](C(=O)O)C(c1ccccc1)c1ccccc1; 2Nal = N[C@@H](Cc1ccc2ccccc2c1)C(=O)O; Cha = N[C@@H](CC1CCCCC1)C(=O)O; Nle = CCCC[C@H](N)C(=O)O
The reply should contain only the number, in µM.

Field: example entries. Status: answers known.
compound="CCCC[C@H](NC(=O)CNC(=O)[C@H](CC1CCCCC1)NC(=O)[C@H](CCCNC(=N)N)NC(=O)[C@@H](N)[C@@H](C)CC)C(=O)NCC(=O)N[C@@H](CCCCN)C(=O)N[C@H](C(=O)N1CCC[C@H]1C(=O)NCC(=O)O)C(C)C [Phe3Cha] (H-IR[Cha]G[Nle]GKVPG-OH)" metric=Ki value_unit=µM obs_value=3.8
compound="CCCC[C@H](NC(=O)CNC(=O)[C@H](Cc1ccc(O)cc1)NC(=O)[C@H](CCCNC(=N)N)NC(=O)[C@@H](N)[C@@H](C)CC)C(=O)NCC(=O)N[C@@H](CCCCN)C(=O)N[C@H](C(=O)N1CCC[C@H]1C(=O)NCC(=O)O)C(C)C [Phe3Tyr] (H-IRYG[Nle]GKVPG-OH)" metric=Ki value_unit=µM obs_value=6.6
compound="CCCC[C@H](NC(=O)CNC(=O)[C@@H](NC(=O)[C@H](CCCNC(=N)N)NC(=O)[C@@H](N)[C@@H](C)CC)C(c1ccccc1)c1ccccc1)C(=O)NCC(=O)N[C@@H](CCCCN)C(=O)N[C@H](C(=O)N1CCC[C@H]1C(=O)NCC(=O)O)C(C)C [Phe3DiP] (H-IR[Dip]G[Nle]GKVPG-OH)" metric=Ki value_unit=µM obs_value=7.4
compound="CCCC[C@H](NC(=O)CNC(=O)[C@H](Cc1ccccc1)NC(=O)[C@H](CCCNC(=N)N)NC(=O)[C@@H](N)[C@@H](C)CC)C(=O)NCC(=O)N[C@@H](CCCCN)C(=O)N[C@H](C(=O)N1CCC[C@H]1C(=O)NCC(=O)O)C(C)C [Met5Nle] (H-IRFG[Nle]GKVPG-OH)" metric=Ki value_unit=µM obs_value=1.9

Now consider a different compound.
Task: Give the reported Ki for this compound. CCCC[C@H](NC(=O)CNC(=O)[C@H](Cc1ccc2ccccc2c1)NC(=O)[C@H](CCCNC(=N)N)NC(=O)[C@@H](N)[C@@H](C)CC)C(=O)NCC(=O)N[C@@H](CCCCN)C(=O)N[C@H](C(=O)N1CCC[C@H]1C(=O)NCC(=O)O)C(C)C [Phe3βNal] (H-IR[2Nal]G[Nle]GKVPG-OH)
Result: 0.19
